system-name: Recombinant human JAK2 (catalytic domain, amino acids 808-1132) (Homo sapiens)
Construct: catalytic domain, amino acids 808-1132
Sequence (O60674 808-1132): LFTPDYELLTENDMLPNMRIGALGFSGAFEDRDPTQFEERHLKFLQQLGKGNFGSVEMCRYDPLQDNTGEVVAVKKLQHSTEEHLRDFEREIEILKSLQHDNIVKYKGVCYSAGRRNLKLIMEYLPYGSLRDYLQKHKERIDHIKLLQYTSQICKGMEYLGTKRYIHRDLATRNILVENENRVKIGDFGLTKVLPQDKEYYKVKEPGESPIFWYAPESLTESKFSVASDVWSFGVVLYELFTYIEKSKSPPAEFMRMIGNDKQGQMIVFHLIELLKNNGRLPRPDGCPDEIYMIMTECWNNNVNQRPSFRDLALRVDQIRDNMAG
experimental-details: JAK2 inhibition assay; also: 0.7 µM ATP
condition-details: read-out: JAK2 potency IC50
value-type: IC50 (nM)

[1] Cc1cc(C#N)ncc1Oc1cc(Nc2ccc(OC3CCN(C)CC3)cn2)c2ncn(C)c2n1
[2] Cc1cc(C#N)ncc1Oc1cc(Nc2ccc(C3(O)COC3)cc2)c2ncn(C)c2n1
IN: # returns the entry with the larger IC50; inputs 1 and 2 Please reply using the label of the selected record.
OUT: 2
(2: 110 nM, 1: 22.9 nM)

====

system-name: Recombinant human TYK2 catalytic domain (amino acids 871-1187) (Homo sapiens)
Construct: catalytic domain (amino acids 871-1187)
Sequence (P29597 871-1187): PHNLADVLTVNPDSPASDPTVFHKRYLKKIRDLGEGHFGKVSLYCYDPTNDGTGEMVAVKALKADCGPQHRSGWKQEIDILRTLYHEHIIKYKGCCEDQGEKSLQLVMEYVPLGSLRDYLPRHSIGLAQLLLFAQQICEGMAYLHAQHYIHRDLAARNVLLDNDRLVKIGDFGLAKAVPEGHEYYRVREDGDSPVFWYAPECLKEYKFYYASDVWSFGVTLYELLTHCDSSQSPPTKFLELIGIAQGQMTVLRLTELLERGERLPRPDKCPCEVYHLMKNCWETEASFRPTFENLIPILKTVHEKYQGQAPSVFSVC
experimental-details: TYK2 radioactive assay polyGT substrate; also: 0.1 µM ATP
Assay type: biochemical
Where a name gives a salt, the structure may show the parent alone.
value-type: IC50 (nM)

Example cases with answers are listed next.
IN: I am curious: what IC50 value has been reported for COCCN(C)c1ccc(Nc2cc(Oc3cnc(C#N)cc3C)nc3c2ncn3C)nc1 [Compound 183] ?
OUT: 12.9

IN: Which IC50 value is on record for Cc1cc(C#N)ncc1Oc1cc(Nc2ccc(N3CCOCC3)cc2)c2ncn(C)c2n1 [Compound 109] ?
OUT: 24.4

IN: Given the entry CCNS(=O)(=O)c1ccc(Nc2cc(Oc3cnc(C#N)cc3C)nc3c2ncn3C)cc1 [Compound 53] , report its measured IC50.
OUT: 9.22

[A] Cc1cc(C#N)ncc1Oc1cc(Nc2ccc(CN)cc2)c2ncn(C)c2n1 [Compound 57, formate salt]
[B] Cc1cc(C#N)ncc1Oc1cc(Nc2ccc(OC3CN(C)C3)nn2)c2ncn(C)c2n1 [Compound 90]
IN: For the pair A and B , which entry has the numerically smaller recorded IC50? Indicate which entry you chose by stating its label.
OUT: B

[a] Cc1cc(C#N)ncc1Oc1cc(Nc2ccc(C(=O)N3CCOCC3)nn2)c2ncn(C)c2n1 [Compound 108]
[b] COCCCN(c1cc(Nc2cc(N)ncn2)c2ncn(C)c2n1)c1cnc(C#N)cc1C [Compound 4]
IN: Between the entries labeled a and b , whose measured IC50 is lower? Lab log: write the label of the selected item as the result.
OUT: a
(a: 2.63 nM, b: 4.37 nM)

[1] Cc1cc(C#N)ncc1Oc1cc(Nc2ccc(N3CCC(C#N)CC3)nn2)c2ncn(C)c2n1 [Compound 45]
[2] Cc1cc(C#N)ncc1Oc1cc(Nc2ccc(C(=O)N3CCOCC3)nc2)c2ncn(C)c2n1 [Compound 28]
[3] Cc1cc(C#N)ncc1Oc1cc(Nc2ccc(C(=O)N3CCN(C4CC4)CC3)cn2)c2ncn(C)c2n1 [Compound 48]
[4] COCC1CN(C(=O)c2ccc(Nc3cc(Oc4cnc(C#N)cc4C)nc4c3ncn4C)nn2)C1 [Compound 117]
IN: Order the 4 molecules from highest to lowest IC50. Returns: the labels listed in the requested order.
OUT: 2, 4, 1, 3

The reported measurements were obtained from patent US11564923B2.
